Source listed as PubChem BioAssay AID1851.

target-entity: Cytochrome P450 1A2 (Homo sapiens)
assay-method-text: Cytochrome panel assay with activity outcomes
measurement-context: recombinant CYP, pro-luciferin dealkylation, luminescence, p450-cyp1a2; series mostly up to 57.1 µM
The whole screen tested about 16,000 compounds, of which about 5,700 (36%) were called active. Inconclusive results (about 24%) are left out. Calls follow the shape of the dose curve; as a rule, active = well fitted curve in the direction sought with a large enough effect; inconclusive = small, poorly fitted or top-dose-only effect, or effect the other way; inactive = no such curve, though single readings can be large or run the other way. The list shows a part of the results.
Form entry, call: pick from active, inactive

{"chem-smiles": "CCOCc1cnc(C)nc1NCC(=O)c1c(C)[nH]c2ccccc12", "class-label": "inactive"}
{"chem-smiles": "CC(=O)N(C[C@@H](C)C(=O)O)c1c(I)cc(I)c(N)c1I", "class-label": "inactive"}

Query: recorded result category for CNC(=O)c1cc2c(cn1)[nH]c1ccccc12 in this test
Result: active
